Ref: PubChem BioAssay (NCI)

test system: ACHN renal; assay: NCI tumour cell line growth inhibition, 48 h; in the data active means GI50 below about 0.43 µM; inactive means the rest
Outcomes: y for active, n for inactive

{"molecule": "COc1ccc(-c2ccc(/C=N/n3c(C)nn(CN4CCN(C)CC4)c3=S)o2)c([N+](=O)[O-])c1", "experimental.system": "ACHN renal", "classification": "n"}
{"molecule": "Nc1c(C(=O)Nc2ccccc2F)sc2nc3c(cc12)C(=O)CCC3", "experimental.system": "ACHN renal", "classification": "n"}
{"molecule": "COc1ccc(C(=O)c2cc3c(N)c(C(=O)Nc4cccc(Cl)c4C)sc3nc2C)cc1", "experimental.system": "ACHN renal", "classification": "y"}
{"molecule": "Nc1nc(N)c2nc(CNc3ccc(C(=O)NC(CCCNC(=O)c4ccccc4C(=O)O)C(=O)O)cc3)cnc2n1 (centres undefined)", "experimental.system": "ACHN renal", "classification": "y"}
{"molecule": "COc1ccc2c(c1)[n+](=O)c(C(=O)/C=C/c1cc(OC)c(OC)c(OC)c1)c(C)n2[O-]", "experimental.system": "ACHN renal", "classification": "n"}
{"molecule": "CCC1CCc2nc3sc(C(=O)Nc4ccccc4C)c(N)c3cc2C1 (centres undefined)", "experimental.system": "ACHN renal", "classification": "n"}
{"molecule": "COc1ccc(C(=O)COc2cccc(/C=C3\\CSc4ccc(C)cc4C3=O)c2)cc1", "experimental.system": "ACHN renal", "classification": "n"}
{"molecule": "CS(=O)(=O)CCNCc1ccc(-c2ccc3ncnc(Nc4ccc(OCc5ccccc5)c(Cl)c4)c3c2)o1", "experimental.system": "ACHN renal", "classification": "y"}
{"molecule": "CCOC(=O)Nc1ccc(-c2nc(-c3cccc(OC)c3)c(-c3ccnc(Br)c3)[nH]2)cc1", "experimental.system": "ACHN renal", "classification": "n"}

----------
test system: NCI-H460 lung; assay: NCI tumour cell line growth inhibition, 48 h
# TGI per entry

{"compound": "COc1cccc2[nH]c(-c3ccccn3)nc12", "TGI": "> 100 µM"}
{"compound": "CCCSC1=NC2C(N(CC)C(=O)N2CC)N1/N=C/C=C/c1ccccc1[N+](=O)[O-] (stereo unspecified)", "TGI": "> 100 µM"}
{"compound": "C=C1C(=O)O[C@H]2[C@H]1CC/C(COC(=O)c1ccc(C#N)cc1)=C\\CC[C@@]1(C)O[C@@H]21", "TGI": "14.5 µM"}
{"compound": "COc1c(O)c2c(=O)cc(OC)c3c4c(OC)cc(=O)c5c(O)c(OC)c6c(c(c1C(C(C)=O)C6C(C)O)c23)c54 (stereo unspecified)", "TGI": "0.688 µM"}
{"compound": "CN(C)c1n/c(=N/c2ncn[nH]2)ss1", "TGI": "> 100 µM"}
{"compound": "NC(=O)NC(=O)c1cccc(NC(=O)CBr)c1", "TGI": "0.166 µM"}
{"compound": "COc1cc2c(cc1OCc1ccccc1)NC(=S)[C@@H]1CCCN1C2=S", "TGI": "> 100 µM"}
{"compound": "NC(CCOCCP(=O)(O)CCOCCC(N)C(=O)O)C(=O)O (stereo unspecified)", "TGI": "> 100 µM"}
{"compound": "Cc1cc(C)c(S(=O)(=O)ONC(=O)OC(C)(C)C)c(C)c1", "TGI": "> 100 µM"}
{"compound": "Cc1nc(N)sc1C(=O)Nc1cc(C(=O)NCCCN(C)C)n(C)c1", "TGI": "> 100 µM"}
{"compound": "Cc1c(C)c(S(=O)(=O)N(CCCN)OCCCN)c(C)c2c1OC(C)(C)C2", "TGI": "> 100 µM"}

----------
Reported TGI values for a set of molecules
system: MDA-N; assay: NCI tumour cell line growth inhibition, 48 h

{"molecule": "Cc1c(C)c(S(=O)(=O)N(CCCN)OCCCN)c(C)c2c1OC(C)(C)C2", "TGI": "33.6 µM"}
{"molecule": "Cc1c2c(n(CCN(C)C)c1C)NN=C(C#N)S2(=O)=O", "TGI": "> 100 µM"}
{"molecule": "CCc1nc(N)nc(N)c1-c1ccc(NCCc2ccccc2)c([N+](=O)[O-])c1", "TGI": "> 57.5 µM"}
{"molecule": "C=C1CN(Cc2ccccc2)[C@@H]2CCCCC[C@H](C#N)[C@H]12", "TGI": "> 100 µM"}
{"molecule": "CCCCCC/C=C\\CCCCCCCCCC1=CC(=O)C=C(OC)C1=O", "TGI": "21.8 µM"}
{"molecule": "C[C@H]1C(Oc2ccc(O)cc2)OC2OC3(C)CCC4[C@H](C)CCC1C24OO3 (stereo partly specified)", "TGI": "26.4 µM"}
{"molecule": "C[C@]12[C@@H]3CC[C@H]1[C@@H](OC(=O)Nc1cc([N+](=O)[O-])cc([N+](=O)[O-])c1)C(=O)N2CC3", "TGI": "> 100 µM"}
{"molecule": "COc1cc2c(cc1OCc1ccccc1)NC(=S)[C@@H]1CCCN1C2=S", "TGI": "> 100 µM"}
{"molecule": "NC(=O)NC(=O)c1cccc(NC(=O)CBr)c1", "TGI": "< 0.0226 µM"}
{"molecule": "Clc1nc2n(c1/C=C/c1cccs1)CCS2", "TGI": "> 100 µM"}
{"molecule": "NC(=Nc1ccc(O)cc1)S(=O)O", "TGI": "> 100 µM"}

----------
# TGI per record follows
system: U251 CNS; test: NCI tumour cell line growth inhibition, 48 h
quantity: TGI (µM)

{"compound": "O=C(O)CCCOc1cc(-c2ccccc2F)nc2cc3c(cc12)OCO3", "inequality.operator": ">", "measured.number": 100}
{"compound": "COc1cc(N(CCC#N)CCC#N)ccc1/C(N=Nc1ccccc1)=N/NC(=O)c1cc(Br)ccc1O", "inequality.operator": ">", "measured.number": 100}
{"compound": "CN1CCC23c4c5ccc(O)c4OC2c2[nH]c4ccccc4c2CC3(O)C1C5 (centres undefined)", "inequality.operator": "=", "measured.number": 52.9}
{"compound": "Cc1ccc(/C=C/C(=N/NC(=O)N/N=C(/C=C/c2ccc(C)cc2)C(C)(C)CN2CCCCC2)C(C)(C)CN2CCCCC2)cc1", "inequality.operator": "=", "measured.number": 2.82}
{"compound": "Cc1nc2n(c(=O)c1CCN1CCC(c3noc4cc(F)ccc34)CC1)CCCC2", "inequality.operator": ">", "measured.number": 50}
{"compound": "CCCCCCCN1C(=O)C(O)(c2ccc(C3(O)C(=O)N(CCCCCCC)c4ccccc43)s2)c2ccccc21 (centres undefined)", "inequality.operator": "=", "measured.number": 3.17}
{"compound": "O=C(O)Cn1c(=O)[nH]c(=O)c2c1ncn2Cc1ccccc1", "inequality.operator": ">", "measured.number": 100}
{"compound": "Cc1ccc(C)c(NC(=O)CCc2nc(=S)[nH][nH]2)c1", "inequality.operator": ">", "measured.number": 100}
{"compound": "C/C(Cc1ccc(Cl)cc1)=C(/c1ccc(Cl)cc1)c1ccc(OCCN(C)C)cc1", "inequality.operator": "=", "measured.number": 8.6}

----------
system: A549 NSCLC; assay: NCI tumour cell line growth inhibition, 48 h
quantity: GI50

{"compound": "COc1cc2nc3cc([N+](=O)[O-])ccc3c(NCCCNCC(C)(C)O)c2cc1OC", "result": "0.32 µM"}
{"compound": "COc1ccc(C(=O)COc2cccc(/C=C3\\CSc4ccc(C)cc4C3=O)c2)cc1", "result": "> 100 µM"}
{"compound": "C=C(C)[C@@H]1CC[C@]2(COC3CCCCO3)CC[C@]3(C)[C@H](CC[C@@H]4[C@@]5(C)C=C(C=O)C(=O)C(C)(C)[C@@H]5CC[C@]43C)[C@@H]12 (some centres undefined)", "result": "1.56 µM"}
{"compound": "O=C(OCc1ccc2c(Cl)cc(Cl)c(O)c2n1)c1cc2ccccc2[nH]1", "result": "1.75 µM"}

----------
Examples of compounds with documented TGI follow.
tested on: NCI-H460 lung; assay: NCI tumour cell line growth inhibition, 48 h

{"compound": "COC(=O)[C@@]12OC[C@]34C([C@@H](O)C1O)[C@@]1(C)CC(=O)C(OC(=O)/C=C(/c5ccccc5)C(F)(F)F)=C(C)C1C[C@H]3OC(=O)[C@H](O)[C@H]42 (stereo partly drawn)", "inequality.operator": "=", "TGI / µM": 23}
{"compound": "CC/C(C)=C1\\OC(=O)C(C)C(O)C(Cc2cccnc2)NC(=O)C(NC(=O)c2ncccc2O)C(C)OC1=O (stereo not drawn)", "inequality.operator": ">", "TGI / µM": 100}
{"compound": "C=C(C)[C@@H]1CC[C@]2(COC3CCCCO3)CC[C@]3(C)[C@H](CC[C@@H]4[C@@]5(C)C=C(C=O)C(=O)C(C)(C)[C@@H]5CC[C@]43C)[C@@H]12 (stereo partly drawn)", "inequality.operator": "=", "TGI / µM": 4.22}
